These data points were gathered from patent US9676708B2.

assay: HNO yield from N2O headspace analysis after complete decomposition, compared to 2BrPA; format: physicochemical; conditions: 37° C. in PBS (pH 7.4); N2O headspace analysis; reported in comparison to 2BrPA (SEM 5%; n = 3)
Where a name gives a salt, the structure may show the parent alone.
Give measured % HNO for each item. Keep answers brief.
Provide only the numeric value, understood in %.

O=C(OCCNc1ccc(Cl)cc1)ONS(=O)(=O)c1ccccc1Br [hydrochloride] yielded % HNO of 69

CNCCOC(=O)ONS(=O)(=O)c1ccccc1Br.Cl yielded % HNO of 93

COc1ccc(NCCOC(=O)ONS(=O)(=O)c2ccccc2Br)cc1 [hydrochloride] yielded % HNO of 93

Cl.O=C(OCCNc1ccccc1)ONS(=O)(=O)c1ccccc1Br yielded % HNO of 91

CC(C)(C)NCCOC(=O)ONS(=O)(=O)c1ccccc1Br yielded % HNO of 64

Cl.O=C(OCCNCc1ccccc1)ONS(=O)(=O)c1ccccc1Br yielded % HNO of 99

CC(C)NCCOC(=O)ONS(=O)(=O)c1ccccc1Br yielded % HNO of 97

CC(C)NCCCOC(=O)ONS(=O)(=O)c1ccccc1Br.Cl yielded % HNO of 30
